- SYSTEM TESTED: GSK3β (Homo sapiens, UniProt P49841)
- Construct: human recombinant
- Sequence (P49841 whole entry): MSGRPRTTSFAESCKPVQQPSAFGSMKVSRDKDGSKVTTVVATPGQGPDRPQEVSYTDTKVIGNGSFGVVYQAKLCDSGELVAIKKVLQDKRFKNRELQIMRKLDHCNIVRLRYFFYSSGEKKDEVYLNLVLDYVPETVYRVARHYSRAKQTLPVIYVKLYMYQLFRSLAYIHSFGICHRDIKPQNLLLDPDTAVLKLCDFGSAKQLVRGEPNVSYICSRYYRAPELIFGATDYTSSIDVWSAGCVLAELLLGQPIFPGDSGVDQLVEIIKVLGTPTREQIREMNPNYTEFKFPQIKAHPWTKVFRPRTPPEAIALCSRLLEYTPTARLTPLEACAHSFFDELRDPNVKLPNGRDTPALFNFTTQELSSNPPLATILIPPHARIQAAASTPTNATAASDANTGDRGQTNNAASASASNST
- TEST NAME: cell-free kinase assay with recombinant enzyme and phosphopeptide substrate
ENDPOINT: pIC50
Answers are plain numbers, as −log10 of the molar value.

Inquiry: Can you look up the measured pIC50 of `O=C1NC(=O)C(c2cnc3ccccn23)=C1c1cn2c3c(cc(F)cc13)CN(C(=O)N1CCCCC1)CC2` for me?
Reply text: 9.05

###

- SYSTEM TESTED: GSK3α (Homo sapiens)
- Construct: human recombinant
- Sequence (P49840 2-483): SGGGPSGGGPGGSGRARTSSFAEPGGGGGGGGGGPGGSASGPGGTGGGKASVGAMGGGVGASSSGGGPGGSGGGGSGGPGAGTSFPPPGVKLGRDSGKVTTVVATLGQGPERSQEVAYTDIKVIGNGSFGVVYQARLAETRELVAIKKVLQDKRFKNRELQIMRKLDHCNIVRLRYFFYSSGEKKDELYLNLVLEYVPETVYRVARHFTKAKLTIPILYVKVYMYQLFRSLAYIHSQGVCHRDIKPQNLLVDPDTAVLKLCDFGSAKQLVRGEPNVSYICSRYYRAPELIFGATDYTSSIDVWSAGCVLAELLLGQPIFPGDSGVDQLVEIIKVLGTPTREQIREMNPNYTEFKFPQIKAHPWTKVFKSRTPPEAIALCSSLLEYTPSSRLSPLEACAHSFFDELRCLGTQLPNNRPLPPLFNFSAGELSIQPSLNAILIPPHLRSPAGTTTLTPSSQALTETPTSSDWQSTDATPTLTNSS
- TEST NAME: cell-free kinase assay with recombinant enzyme and phosphopeptide substrate
ENDPOINT: pIC50
Answers are plain numbers, as −log10 of the molar value.

Inquiry: // map `O=C1NC(=O)C(c2cnc3ccccn23)=C1c1cn2c3c(cc(F)cc13)CN(C(=O)N1CCCCC1)CC2` to recorded pIC50 (system: GSK3α (Homo sapiens))
Reply text: 8.82
